- ASSAY_TEXT: NCI Yeast Anticancer Drug Screen. Data for the mlh1 rad18 strain (AID 175)
- CONDITION_DESCRIPTION: S. cerevisiae mlh1 rad18 strain growth inhibition; at 50.0 µM; hits give high values
This is part of a sample that, as a whole, favours compounds with a hit. Of some 79,000 tested, about 15% had one in any assay. Calls of active or inactive are those of the source. Cut-off read from the data, not from the text of the source: active = growth inhibition above about 70%; inactive = the rest.
READOUT_NAME: growth inhibition

Below: 4 molecules and their reported growth inhibition.
Query: I'd like to know its growth inhibition. The molecule in question is CCCCC(O)C(C)(C)C (stereo not given)
Response: 7.2% (inactive)

Query: I'd like to know its growth inhibition. The molecule in question is CC(=O)N(CN1C(=O)CCC1C(=O)O)c1ccccc1 (stereo not given)
Response: -31.3% (inactive)

Query: I'd like to know its growth inhibition. The molecule in question is CCS(=O)(=O)CCNC(=O)NS(=O)(=O)c1ccc(C)cc1
Response: 0.9% (inactive)

Query: I'd like to know its growth inhibition. The molecule in question is CCOC(=O)Nc1ccc(C2SCCN2C(=O)NC)cc1 (stereo not given)
Response: 32.2% (inactive)

Now look at this entry.
Query: I'd like to know its growth inhibition. The molecule in question is COc1ccc2c3c([nH]c2c1)C(C)N(S(=O)(=O)c1ccccc1)CC3 (stereo not given)
Response: 5.7% (inactive)

* * *

- ASSAY_TEXT: NCI Yeast Anticancer Drug Screen. Data for the sgs1 mgt1 strain (AID 161);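 note: 0% = growth of cultures given vehicle only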
- CONDITION_DESCRIPTION: S. cerevisiae sgs1 mgt1 strain, at 50.0 µM, hits give high values
About 79,000 compounds went through this panel and 15% of them were active in at least one assay; those are over-represented in the sample as a whole.
READOUT_NAME: growth inhibition (%)
Give bare numbers, in %.

Below: 3 molecules and their reported growth inhibition.
Query: I'd like to know its growth inhibition. The molecule in question is COc1cccc(/C(CC(O)(C(F)(F)F)C(F)(F)F)=N\N(C)C)c1
Response: -8.7

Query: I'd like to know its growth inhibition. The molecule in question is CC1SC2(C(=O)N(CN3CCCCC3)c3ccccc32)N(c2ccccc2)C1=O (centres undefined)
Response: -30.9

Query: I'd like to know its growth inhibition. The molecule in question is O=[N+]([O-])c1ccc(C=C2C=c3ccccc3=C2)cc1
Response: -14.4

Now look at this entry.
Query: I'd like to know its growth inhibition. The molecule in question is CC(=O)OCC1OC(n2cnc([N+](=O)[O-])c2Br)C(OC(C)=O)C1OC(C)=O (centres undefined)
Response: 18.8

* * *

- ASSAY_TEXT: NCI Yeast Anticancer Drug Screen. Data for the rad50 strain (AID 155);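 note: 0% = growth of vehicle-only cultures of the same strain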
- CONDITION_DESCRIPTION: S. cerevisiae rad50 strain growth inhibition; at 50.0 µM; hits give high values
- Experimental: Growth inhibition of yeast strains with defined genetic alterations is measured as a screen for potential anti-cancer activity. Selected strains with alterations in DNA damage repair or cell cycle control were exposed to compounds and growth inhibition was measured relative to vehicle treated controls. The strain used in this assay is rad50
The panel holds about 79,000 compounds, 15% with a hit somewhere; the sample as a whole holds those more often.
Record form. Attribute: growth inhibition. Fill in for each entry.
Numbers only, in %.

Query: I'd like to know its growth inhibition. The compound in question is CCc1ccccc1O
Response: 6.1

Query: I'd like to know its growth inhibition. The compound in question is CCOC(=O)C(C)(C)C(=O)Nc1ccccc1
Response: 5.2

Query: I'd like to know its growth inhibition. The compound in question is NC(=O)N/N=C1\CC2CCC1C2Cl (centres undefined)
Response: -0.05

Query: I'd like to know its growth inhibition. The compound in question is COc1cccc(CCC(=O)O)c1
Response: -11.7

Query: I'd like to know its growth inhibition. The compound in question is CCCCCCC(c1ccc(N(C)C)cc1)c1ccc(N(C)C)cc1
Response: -6.95

Record growth inhibition per entry; entries follow.
1. Cc1ccc(C2SC(N)=Nc3c2c(C)nn3C(=O)c2ccncc2)cc1 (centres undefined)
2. N.N.N.N.N.O=S(=O)([O-])S(=O)(=O)[O-].[Co+3]
3. CC(=O)Oc1ccc(O)c(C(=O)O)c1
4. CN1CCCn2c(nc3ccccc3c2=O)C1
5. COC(=O)C1=C(CO)C2C=CC1C2 (centres undefined)
6. Cc1nc2cccc([N+](=O)[O-])c2s1
7. O=P(O)(OCCOc1ccccc1)OCCOc1ccccc1
8. CCc1nnc2n1N=C(c1ccc(-c3ccccc3)cc1)CS2

Response:
[-27.6, 9.15, 1.8, -1.4, 3.25, 15.2, 6.25, 20.4]

Record growth inhibition per entry; entries follow.
1. CCOP(=O)(OCC)/C(=C/NC(=S)c1cccnc1)C(=O)OC
2. Cc1ccc(C2=Nc3cccc4cccc(c34)N2)cc1
3. CO/N=C1/c2sccc2[C@H](NC(=O)C(Cc2ccccc2)NC(=O)OC(C)(C)C)[C@@H]1O (some centres undefined)
4. CC(=O)Oc1nc2ccccc2n1C(C)=O
5. N#Cc1ccc(NC(=NCC(=O)O)Nc2ccc3ccccc3c2)cc1
6. CN(C)CCN1CC2C3CCCCC3=C3CCCCC3C2C1 (centres undefined)

Response:
-11
-40
-18.2
15.3
-16.2
-0.45

* * *

- ASSAY_TEXT: NCI Yeast Anticancer Drug Screen. Data for the mlh1 rad18 strain (AID 175)
- CONDITION_DESCRIPTION: S. cerevisiae mlh1 rad18 strain growth inhibition; at 50.0 µM; hits give high values
The panel holds about 79,000 compounds, 15% with a hit somewhere; the sample as a whole holds those more often.
Record form. Attribute: growth inhibition. Fill in for each entry.
Numbers only, in %.

Below: 6 molecules and their reported growth inhibition.
Query: I'd like to know its growth inhibition. The molecule in question is O=C1C(=C(c2ccccc2)N2CCCCC2)C(=O)c2ccccc21
Response: 3.2

Query: I'd like to know its growth inhibition. The molecule in question is Brc1ccc(-c2[nH]c3ccccc3c2N=Nc2ccccc2)cc1
Response: -56.7

Query: I'd like to know its growth inhibition. The molecule in question is Cc1ccc(S(=O)(=O)OC(c2ccccc2)C(F)(F)F)cc1 (centres undefined)
Response: 2.85

Query: I'd like to know its growth inhibition. The molecule in question is C[Si](C)(C)c1ccc(C(N)=O)cc1
Response: 8.7

Query: I'd like to know its growth inhibition. The molecule in question is CCC1(CN(C)C)CC/C(=C\c2ccc(OC)cc2)C1=O (centres undefined)
Response: 27.3

Query: I'd like to know its growth inhibition. The molecule in question is NC(CCCC(N)P(=O)(O)c1ccccc1)P(=O)(O)c1ccccc1 (centres undefined)
Response: -46.6

Record growth inhibition per entry; entries follow.
1. O=[S@]1Nc2cc(N=Nc3ccccc3)ccc2S1
2. CCCCCCCCCCCCCC#N

Response:
1: -12.1; 2: 25.8

Record growth inhibition per entry; entries follow.
1. O=C1c2ccccc2-c2cccc3ccc(-c4ccccc4)c1c23
2. CCN1C(=O)CC(SCCSC2CC(=O)N(CC)C2=O)C1=O (centres undefined)
3. CCC(CO)Nc1nc2c(c(=O)n(C)c(=O)n2C)n1CCO (centres undefined)
4. CSC1NC(c2ccccc2)=C(C#N)C(=O)N1C1OCC(OC(C)=O)C(OC(C)=O)C1OC(C)=O (centres undefined)
5. COC(=O)Cc1[nH]c(C(=O)OC)c(C)c1C(=O)OC
6. COc1ccc(C(O)c2ccccn2)cc1 (centres undefined)
7. Cc1cc(C)c2nc(N)sc2c1
8. CCCCCCOC(=O)C[n+]1ccc(C(N)=O)cc1

Response:
1. 12.5
2. -2.45
3. -4.75
4. -1.5
5. -2.2
6. -18.7
7. 30.1
8. -1.9

Record growth inhibition per entry; entries follow.
1. c1ccc(C2=NOC3C4CCC(C4)C23)cc1 (centres undefined)
2. O=C(O)C1C(CCl)=C1CCl
3. COc1ccc([C@@]23Oc4cc(OC)cc(OC)c4[C@]2(O)[C@H](O)[C@H](C(=O)N(C)C)[C@H]3c2ccccc2)cc1
4. Cc1ccc2nc(NS(=O)(=O)c3cc(C)c(Cl)cc3S)[nH]c2c1
5. CCc1ccccc1NOC
6. O=c1[nH]c(=O)n(C2OC(CO)C(O)C2O)cc1Oc1ccccc1 (centres undefined)
7. O=C1OC2CC3CC2C1C3C(=O)N1CCCCC1 (centres undefined)
8. O=C(C[N+]12CC=C(CO)C1C(O)CC2)c1ccc(Br)cc1 (centres undefined)

Response:
[-20.1, -2.9, 91.1, 39.9, 9.65, -13.8, -5.4, -4]

Record growth inhibition per entry; entries follow.
1. Brc1ccc(C(c2ccc(Br)cc2)C(Br)(Br)Br)cc1
2. O=C1NCCN1CCCl

Response:
[8.2, 6.25]

Record growth inhibition per entry; entries follow.
1. Cc1ccc(C(C)(O)C2CC2)cc1 (centres undefined)
2. COc1cc(Nc2nc3ccc(C(F)(F)F)cc3nc2-c2ccccc2)cc(OC)c1OC
3. OC(CI)C1OCOC2COCOC21 (centres undefined)

Response:
1: 18.1; 2: -22.9; 3: -3.75
